The reported numbers originate from BindingDB's records for doi:10.1021/jm2005767.

Assay Metric: IC50

Req: Could you share what IC50 was measured for `CCOC(=O)c1c(C)oc2cc(OC(=O)N3CCOCC3)c(OS(=O)(=O)O)cc12` , tested on UniProt:P00734?
Resp: > 2500 µM
